REPORTED_METRIC: melting point

### Prompt Looking for the measured melting point of COCCc1nc2c(N)nc3ccccc3c2n1CCOCCN(C)C(=O)c1ccccc1 [Example 8] , can you help?
### Response 93.5 to 97 °C

### Prompt Looking for the measured melting point of COCCc1nc2c(N)nc3c(c2n1CCOCCN(C)C(=O)c1ccccc1)CCCC3 [Example 10] , can you help?
### Response 83 to 87 °C

### Prompt Looking for the measured melting point of CCOCc1nc2c(N)nc3ccccc3c2n1CCOCCNC(=O)c1ccccc1 [Example 72] , can you help?
### Response 154 to 156 °C

### Prompt Looking for the measured melting point of CCc1nc2c(N)nc3ccccc3c2n1CCOCCNC(=O)c1ccccc1 [Example 71] , can you help?
### Response 188 to 191 °C

### Prompt Looking for the measured melting point of COCCc1nc2c(N)nc3c(c2n1CCOCCNC(=O)c1ccccc1)CCCC3 [Example 6] , can you help?
### Response 141 to 143 °C

Shift focus to the following entry.
### Prompt Looking for the measured melting point of COCCc1nc2c(N)nc3ccccc3c2n1CCOCCNC(=O)c1ccccc1 [Example 4] , can you help?
### Response 184 to 187 °C
